Hey, just so you know, these numbers are from the supplement of paper PMC12350171.

tested on: P. vulgatus WT; assay: growth AUC normalised to DMSO control (median) (fraction of control); higher = less growth inhibition, active = hit call of the paper; settings: 20 µM;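 also: active when median AUC fell below 0.1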
Structures can show the parent of a compound that is named as a salt.
Consider the following compounds and their measured growth AUC normalised to DMSO control readings.

- COMPOUND: "CC[C@H]1OC(=O)[C@H](C)[C@@H](O[C@H]2C[C@@](C)(OC)[C@@H](O)[C@H](C)O2)[C@H](C)[C@@H](O[C@@H]2O[C@H](C)C[C@H](N(C)C)[C@H]2O)[C@](C)(O)C[C@@H](C)/C(=N\\OCOCCOC)[C@H](C)[C@@H](O)[C@]1(C)O"
  OBSERVABLE: "growth AUC normalised to DMSO control"
  MEASUREMENT: "0.0119 (active)"
- COMPOUND: "CC(=O)OC[C@H]1O[C@@H](n2ncc(=O)[nH]c2=O)[C@H](OC(C)=O)[C@@H]1OC(C)=O"
  OBSERVABLE: "growth AUC normalised to DMSO control"
  MEASUREMENT: "0.956 (inactive)"
- COMPOUND: "COc1cc(Cc2cnc(N)nc2N)cc(OC)c1OC"
  OBSERVABLE: "growth AUC normalised to DMSO control"
  MEASUREMENT: "0.259 (inactive)"
- COMPOUND: "CC(=O)OCC(=O)[C@@]12OC(C)(C)O[C@@H]1C[C@H]1[C@@H]3C[C@H](F)C4=CC(=O)C=C[C@]4(C)[C@@]3(F)[C@@H](O)C[C@@]12C [Fluocinonide]"
  OBSERVABLE: "growth AUC normalised to DMSO control"
  MEASUREMENT: "0.951 (inactive)"
- COMPOUND: "CC(=O)[C@@]1(O)CC[C@H]2[C@@H]3C[C@H](C)C4=CC(=O)C=C[C@]4(C)[C@@]3(F)[C@@H](O)C[C@@]21C"
  OBSERVABLE: "growth AUC normalised to DMSO control"
  MEASUREMENT: "1.01 (inactive)"
- COMPOUND: "Cc1onc(-c2c(Cl)cccc2Cl)c1C(=O)N[C@@H]1C(=O)N2[C@@H]1SC(C)(C)[C@@H]2C(=O)O [Dicloxacillin sodium salt hydrate]"
  OBSERVABLE: "growth AUC normalised to DMSO control"
  MEASUREMENT: "0.0487 (active)"
- COMPOUND: "CC(C)(C#N)c1cc(Cn2cncn2)cc(C(C)(C)C#N)c1"
  OBSERVABLE: "growth AUC normalised to DMSO control"
  MEASUREMENT: "1.06 (inactive)"
- COMPOUND: "CC(N)C12CC3CC(CC(C3)C1)C2 (centres undefined) [Rimantadine hydrochloride]"
  OBSERVABLE: "growth AUC normalised to DMSO control"
  MEASUREMENT: "0.983 (inactive)"
- COMPOUND: "CN1CCN(c2c(F)cc3c(=O)c(C(=O)O)cn4c3c2SCC4)CC1"
  OBSERVABLE: "growth AUC normalised to DMSO control"
  MEASUREMENT: "0.47 (inactive)"
- COMPOUND: "C#CCN(C)Cc1ccccc1 [Pargyline hydrochloride]"
  OBSERVABLE: "growth AUC normalised to DMSO control"
  MEASUREMENT: "1 (inactive)"

Enquiry: Item under review: CCc1cc(Cl)c(OC)c(C(=O)NC[C@@H]2CCCN2CC)c1O [(S,-) Eticlopride hydrochloride] . Reported growth AUC normalised to DMSO control?
Return: 1.03 (inactive)

Enquiry: Item under review: CC1(C)O[C@@H]2C[C@H]3[C@@H]4C[C@H](F)C5=CC(=O)C=C[C@]5(C)[C@H]4[C@@H](O)C[C@]3(C)[C@]2(C(=O)CO)O1 [Flunisolide] . Reported growth AUC normalised to DMSO control?
Return: 1.05 (inactive)

Enquiry: Item under review: C1N2CN3CN1CN(C2)C3 . Reported growth AUC normalised to DMSO control?
Return: 1.03 (inactive)

Enquiry: Item under review: COC(=O)C1=C(C)NC(C)=C(C(=O)OC2CCCN(Cc3ccccc3)C2)C1c1cccc([N+](=O)[O-])c1 (centres undefined) [Benidipine hydrochloride] . Reported growth AUC normalised to DMSO control?
Return: 0.968 (inactive)
